# System: HCT-116 colon
# protocolDescription: NCI-60 one-dose screen, 48 h
# condition: 10 µM unless noted
# Description: Growth inhibition of the HCT-116 human tumor cell line is measured as a screen for anti-cancer activity. Cells are grown in 96 well plates and exposed to the test compound for 48 hours. Compounds are tested at a single concentration, which is 10^-5 M for most compounds. The reported endpoint is percent growth (GI% or GIPRCNT), where numbers from 0 - 100% represent growth inhibition, and numbers from -100% - 0 represent cell death. For example, a value of 40 represents 60% growth inhibition. […]
The panel holds about 83,000 compounds, 20% with a hit somewhere; the sample as a whole holds those more often. Calls of active or inactive are those of the source. The calls were made as follows: active = growth percent below 10; inactive = the rest.
Select the matching outcome among true = active, false = inactive

Task item: For CCOC(=O)C1=C(CCl)NC(=O)NC1c1ccc2c(c1)OCO2 (stereo not given) , which call appears in the assay record?
Reply: true

Task item: For "CCCCCN1C=C/C(=C\C(=O)N(C)c2ccc(OC(F)(F)F)cc2)c2ccccc21" , which call appears in the assay record?
Reply: false

Task item: For "COc1ccc(C(=O)c2nc3ccccc3n2CC(=O)c2ccc(F)cc2)cc1" , which call appears in the assay record?
Reply: false

Task item: For COc1cc2c(c(OC)c1OC)CCC(c1cccc(NC(=O)c3cccc(Br)c3)c1)O2 (stereo not given) , which call appears in the assay record?
Reply: false

Task item: For "O=C(/C=C/c1c(-c2ccc(Cl)cc2)nn(-c2ccccc2)c1C(F)(F)F)c1ccc(Cl)cc1" , which call appears in the assay record?
Reply: false
